# Test system: Malme-3M
# PROTOCOL SUMMARY: NCI tumour cell line growth inhibition, 48 h
The source made the active and inactive calls. No stated cut-off is given here; in the data, active = GI50 up to about 1.1 µM and inactive = higher.
EXPERIMENTAL READOUT: GI50

INSERT INTO results (compound, experimental_readout, assay_result) VALUES
  ('COc1ccc(N[S+]([O-])CCc2ccccc2)cc1 (stereo unspecified)', 'GI50', '> 100 µM (inactive)'),
  ('O=C(Cc1nccc2c1[nH]c1ccccc12)OC1C#CCSCC#C/C=C\1 (stereo unspecified)', 'GI50', '> 100 µM (inactive)'),
  ('S=C(N/N=C/c1ccco1)NC12CC3CC(CC(C3)C1)C2', 'GI50', '> 100 µM (inactive)'),
  ('CC1CC(N)=C(C#N)C1(C#N)C#N (stereo unspecified)', 'GI50', '> 100 µM (inactive)'),
  ('CC1CC[P+](c2ccccc2)(c2ccccc2)c2c1ccc1ccccc21 (stereo unspecified)', 'GI50', '5.96 µM (inactive)'),
  ('SC1=Nc2ccccc2-c2nc(-c3ccccc3)cc(-c3ccc(Br)cc3)c2C1', 'GI50', '2.59 µM (inactive)'),
  ('Cc1[nH]n(-c2nc(O)c(-c3ccccc3)c(=O)[nH]2)c(=O)c1CCO', 'GI50', '> 100 µM (inactive)'),
  ('COc1cc(/C=C/c2ccc(OC)c(OC)c2OC)cc(OC)c1OC', 'GI50', '20.2 µM (inactive)'),
  ('CC(C)c1c(O[Si](C(C)C)(C(C)C)C(C)C)c2c3c(ccc4c3c1OC4(C)C)C(C)CC2 (stereo unspecified)', 'GI50', '> 100 µM (inactive)'),
  ('Cc1c2cccc-2ccc2c1[nH]c1ccccc12', 'GI50', '1.89 µM (inactive)'),
  ('N#Cc1c2c(c(N=[N+]=[N-])n3c1nc1ccccc13)CCCC2', 'GI50', '2.4 µM (inactive)');

Origin of measurements: ChEMBL document CHEMBL1201862
